- experimentalTarget: Integrin alpha-IIb/beta-3 (Homo sapiens, UniProt P05106+P08514)
- Sequence (P05106 27-788 limits assumed): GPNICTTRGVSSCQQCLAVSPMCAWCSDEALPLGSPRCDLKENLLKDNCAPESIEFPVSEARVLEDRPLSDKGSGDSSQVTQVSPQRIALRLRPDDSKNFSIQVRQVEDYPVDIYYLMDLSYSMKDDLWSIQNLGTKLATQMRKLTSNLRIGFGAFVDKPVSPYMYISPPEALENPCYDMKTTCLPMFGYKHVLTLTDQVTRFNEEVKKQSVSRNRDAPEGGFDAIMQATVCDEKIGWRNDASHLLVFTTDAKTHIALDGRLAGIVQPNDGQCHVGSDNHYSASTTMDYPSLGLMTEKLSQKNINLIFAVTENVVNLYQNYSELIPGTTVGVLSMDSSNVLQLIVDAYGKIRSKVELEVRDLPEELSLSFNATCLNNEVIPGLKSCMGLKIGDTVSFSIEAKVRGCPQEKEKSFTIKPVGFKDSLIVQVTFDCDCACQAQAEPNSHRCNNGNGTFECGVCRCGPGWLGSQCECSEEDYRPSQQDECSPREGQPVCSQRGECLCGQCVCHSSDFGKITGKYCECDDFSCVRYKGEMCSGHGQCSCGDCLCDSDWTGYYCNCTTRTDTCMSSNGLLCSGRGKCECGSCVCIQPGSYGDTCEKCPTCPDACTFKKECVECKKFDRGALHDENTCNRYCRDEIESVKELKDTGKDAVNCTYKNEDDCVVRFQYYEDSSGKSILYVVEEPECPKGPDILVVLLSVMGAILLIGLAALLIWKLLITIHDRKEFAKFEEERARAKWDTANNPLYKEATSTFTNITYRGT
- Sequence (P08514 32-887 limits assumed): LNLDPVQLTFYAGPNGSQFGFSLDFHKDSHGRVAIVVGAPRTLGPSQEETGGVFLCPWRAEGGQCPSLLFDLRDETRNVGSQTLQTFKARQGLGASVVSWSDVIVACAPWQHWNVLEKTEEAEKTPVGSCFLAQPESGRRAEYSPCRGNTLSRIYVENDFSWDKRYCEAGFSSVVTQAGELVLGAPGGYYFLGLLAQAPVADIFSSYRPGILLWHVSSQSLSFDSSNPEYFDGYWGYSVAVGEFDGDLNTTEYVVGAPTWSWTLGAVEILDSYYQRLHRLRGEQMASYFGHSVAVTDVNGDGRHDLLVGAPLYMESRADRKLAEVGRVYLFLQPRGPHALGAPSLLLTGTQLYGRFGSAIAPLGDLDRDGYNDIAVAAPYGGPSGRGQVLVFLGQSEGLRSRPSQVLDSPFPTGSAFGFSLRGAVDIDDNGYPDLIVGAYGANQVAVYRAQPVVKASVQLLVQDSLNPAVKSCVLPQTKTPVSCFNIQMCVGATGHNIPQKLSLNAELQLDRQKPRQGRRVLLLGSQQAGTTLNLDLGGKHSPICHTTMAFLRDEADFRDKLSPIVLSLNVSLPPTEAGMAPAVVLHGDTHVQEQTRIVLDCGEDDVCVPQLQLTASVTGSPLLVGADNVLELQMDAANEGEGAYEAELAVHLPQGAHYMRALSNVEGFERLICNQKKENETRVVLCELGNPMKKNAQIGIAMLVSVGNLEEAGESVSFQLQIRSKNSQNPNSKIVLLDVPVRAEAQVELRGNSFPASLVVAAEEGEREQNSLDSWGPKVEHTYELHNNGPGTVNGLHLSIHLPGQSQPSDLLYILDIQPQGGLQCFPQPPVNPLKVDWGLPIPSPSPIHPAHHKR
- Sequence (P08514 891-1039 limits assumed): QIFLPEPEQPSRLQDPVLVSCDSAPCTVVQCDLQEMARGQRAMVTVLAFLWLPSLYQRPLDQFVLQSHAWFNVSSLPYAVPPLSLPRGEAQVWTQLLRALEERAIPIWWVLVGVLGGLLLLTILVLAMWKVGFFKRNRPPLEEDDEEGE
- procedureText: Inhibitory activity against binding of Fibrinogen to thrombocyte alpha IIb beta-3 integrin
readoutLabel: log10(Ki) (log10 of the value in µM)
Remember, log10 of Ki, in µM.

Example cases with answers are listed next.
N=C(N)c1ccc(CN2C(=O)COc3cc(NC(=O)C(Cc4ccccc4)C(=O)N[C@@H](CCC(=O)O)C(=O)O)ccc32)cc1 (stereo partly specified)	-0.69
CCOC(=O)[C@H](Cc1ccccc1)C(=O)Nc1ccc2c(c1)OCC(=O)N2Cc1ccc(C(=N)N)cc1	0.72
CCOC(=O)[C@H](C)NC(=O)C(Cc1ccccc1)C(=O)Nc1ccc2c(c1)OCC(=O)N2Cc1ccc(C(=N)N)cc1 (stereo partly specified)	0.86
CCOC(=O)CC[C@H](NC(=O)[C@H](Cc1ccccc1)C(=O)Nc1ccc2c(c1)OCC(=O)N2Cc1ccc(C(=N)N)cc1)C(=O)OCC	0.60
N=C(N)c1ccc(CN2C(=O)COc3cc(NC(=O)C(Cc4ccccc4)C(=O)O)ccc32)cc1 (stereo unspecified)	0.60

Measured log10(Ki) of CN1C(=O)C(OCc2ccc(C(=N)N)cc2)Oc2cc(C(=O)N[C@@H](CC(=O)O)c3ccccc3)ccc21 (stereo partly specified) : 0.21

Measured log10(Ki) of CCOC(=O)CNC(=O)C(Cc1ccccc1)C(=O)Nc1ccc2c(c1)OCC(=O)N2Cc1ccc(C(=N)N)cc1 (stereo unspecified) : 0.84

---

This section presents compounds with their documented pKi values.
- procedureText: Inhibitory activity against Coagulation factor X
Note on units: pKi is unitless, being -log10 of a concentration expressed in mol/L.

Solved cases below.
CCOC(=O)[C@H](C)NC(=O)[C@H](Cc1ccccc1)C(=O)Nc1ccc2c(c1)OCC(=O)N2Cc1ccc(C(=N)N)cc1	4.68
CCOC(=O)CNC(=O)C(Cc1ccccc1)C(=O)Nc1ccc2c(c1)OCC(=O)N2Cc1ccc(C(=N)N)cc1 (stereo unspecified)	4.69
CCOC(=O)[C@H](C)NC(=O)C(Cc1ccccc1)C(=O)Nc1ccc2c(c1)OCC(=O)N2Cc1ccc(C(=N)N)cc1 (stereo partly specified)	4.57
CCOC(=O)CC[C@H](NC(=O)C(Cc1ccccc1)C(=O)Nc1ccc2c(c1)OCC(=O)N2Cc1ccc(C(=N)N)cc1)C(=O)OCC (stereo partly specified)	4.72

Consider now this further compound.
response.value for COC(=O)C(Cc1ccccc1)C(=O)Nc1ccc2c(c1)OCC(=O)N2Cc1ccc(C(=N)N)cc1 (stereo unspecified) (field: pKi) = 4.65

---

- experimentalTarget: Integrin alpha-IIb/beta-3 (Homo sapiens, UniProt P05106+P08514)
- procedureText: Inhibitory activity against binding of Fibrinogen to thrombocyte alpha IIb beta-3 integrin
Catalogue of Ki values
Give the value; after it, write the unit.

COC(=O)C(Cc1ccccc1)C(=O)Nc1ccc2c(c1)OCC(=O)N2Cc1ccc(C(=N)N)cc1 (centres undefined)	0.973 µM
CCOC(=O)[C@H](C)NC(=O)[C@H](Cc1ccccc1)C(=O)Nc1ccc2c(c1)OCC(=O)N2Cc1ccc(C(=N)N)cc1	59.1 µM
CCOC(=O)C[C@H](NC(=O)c1ccc2c(c1)OC(OCc1ccc(C(=N)N)cc1)C(=O)N2C)c1ccccc1 (some centres undefined)	24.6 µM

// recorded Ki for CCOC(=O)CC[C@H](NC(=O)C(Cc1ccccc1)C(=O)Nc1ccc2c(c1)OCC(=O)N2Cc1ccc(C(=N)N)cc1)C(=O)OCC (some centres undefined) : 3.66 µM
